TGT: full-length beta-Catenin (Uniprot ID P35222) (Homo sapiens (Human)) (UniProt P35222)
ASSAY_EXPLANATION: fluorescence polarization competition; peptide titrated against 10 nM full-length beta-catenin + 10 nM 5FAM-TCF4(10-53)
Starred links: 1 amine or outer side, 2 acyl side, 3 side chain; linkers in the order of their positions; H or OH if unused. Positions of bridges follow the written chain, without caps; N, C: chain ends. Non-standard residues stand in square brackets, D forms with d. Primed or numbered codes have the meaning given here. PyrS2″ = (S)-3-amino-1-((pent-4-en-1-yloxy)carbonyl)pyrrolidine-3-carboxylic acid (stapling residue), C=CCCCOC(=O)N1CC[C@@](N[*:1])(C(=O)[*:2])C1; B5(4) = 2,2-bis(4-pentenyl)glycine = 2-amino-2-(pent-4-en-1-yl)hept-6-enoic acid (stitching residue), C=CCCCC(CCCC=C)(N[*:1])C(=O)[*:2]; PyrS2 = (S)-3-amino-1-((pent-4-en-1-yloxy)carbonyl)pyrrolidine-3-carboxylic acid, C=CCCCOC(=O)N1CC[C@@](N[*:1])(C(=O)[*:2])C1; B5(3) = 2,2-bis(4-pentenyl)glycine (stitching residue), C=CCCCC(CCCC=C)(N[*:1])C(=O)[*:2]; B6 = 2-amino-2-(hex-5-en-1-yl)oct-7-enoic acid, C=CCCCCC(CCCCC=C)(N[*:1])C(=O)[*:2]; Phe(3-COOH) = N[C@@H](Cc1cccc(C(=O)O)c1)C(=O)O; 2F3MeF = Cc1cccc(C[C@H](N[*:1])C(=O)[*:2])c1F; Phe(2-CF3) = N[C@@H](Cc1ccccc1C(F)(F)F)C(=O)O; Phe(4-Cl) = N[C@@H](Cc1ccc(Cl)cc1)C(=O)O; Phe(2-Cl) = N[C@@H](Cc1ccccc1Cl)C(=O)O; 2Nal = N[C@@H](Cc1ccc2ccccc2c1)C(=O)O; Bta = N[C@@H](Cc1csc2ccccc12)C(=O)O; αAllylPro = C=CC[C@@]1(C(=O)O)CCCN1; tBuAla = CC(C)(C)C[C@H](N)C(=O)O; S8 = C=CCCCCCC[C@](C)(N)C(=O)O; Phe(ol) = N[C@H](CO)Cc1ccccc1
TEST_READOUT: IC50 (nM)
# unit: nM | format: bare number

For orientation, consider the following solved cases.
Ac-[αAllylPro]DA[B5(4)]DDAA[2Nal]A[S8]F[Bta]Q-NH2 (staple 1-4, 4-11) [I-370] : 1560
Ac-[αAllylPro]D[tBuAla][B6]D[Phe(3-COOH)]QAFL[PyrS2][Phe(2-CF3)][Bta]A-NH2 (staple 1-4, 4-11; also: one of three HPLC isomer compositions) [I-2516] : 209
Ac-[αAllylPro]D[tBuAla][B5(3)]D[Phe(3-COOH)]AAFL[PyrS2″][2F3MeF][Phe(4-Cl)]S-NH2 (staple 1-4, 4-11) [I-2222] : 84

Consider the additional binder presented here.
Name the recorded IC50 for Ac-[αAllylPro]D[tBuAla][B5(3)]DDAAFN[PyrS2″][Phe(2-Cl)][Bta][Phe(ol)] (staple 1-4, 4-11) [I-1083] .
8

Source of measurements: patent US20240116985A1
